- tested.on: Thromboxane A2 receptor (Rattus norvegicus)
- Sequence (P34978 whole entry): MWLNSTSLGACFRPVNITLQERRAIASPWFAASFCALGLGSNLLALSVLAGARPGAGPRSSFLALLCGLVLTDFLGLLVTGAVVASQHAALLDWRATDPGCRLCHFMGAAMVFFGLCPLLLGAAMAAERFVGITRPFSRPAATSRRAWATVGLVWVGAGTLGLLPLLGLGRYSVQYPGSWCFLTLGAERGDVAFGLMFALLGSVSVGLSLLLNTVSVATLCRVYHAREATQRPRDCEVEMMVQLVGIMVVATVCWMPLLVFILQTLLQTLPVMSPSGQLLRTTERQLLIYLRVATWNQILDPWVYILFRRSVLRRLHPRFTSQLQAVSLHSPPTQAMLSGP
- procedure.text: In vitro thromboxane A2 antagonistic activity on U-46619 (0.1 uM) induced contraction of rat aorta
pIC50: −log10 of the molar value.
observable: pIC50

O=C([O-])c1ccc2c(c1)CC(CNS(=O)(=O)c1ccc(Cl)cc1)C2.[Na+] (stereo not given)
7.58

I = O=C(O)c1ccc2c(c1)CC(CCNS(=O)(=O)c1ccc(Cl)cc1)C2 (stereo not given)
II = O=C([O-])CCCc1ccc2c(c1)CC(CNS(=O)(=O)c1ccc(Cl)cc1)C2.[Na+] (stereo not given)
III = O=C(O)Cc1ccc2c(c1)CC(CNS(=O)(=O)c1cccc3ccccc13)C2 (stereo not given)
IV = O=C(O)Cc1ccc2c(c1)CC(CCCNS(=O)(=O)c1ccc(Cl)cc1)C2 (stereo not given)
Q: Order the items by recorded pIC50; the first position goes to the largest value. Return value: ordered labels per request.
Result: II, I, III, IV
(II: 7.41, I: 7.18, III: 6.53, IV: 6.29)
